This listing pairs compounds with measured collision cross section in nitrogen.
# assayRemarks: collision cross section in nitrogen (drift tube, single-field); higher = larger gas-phase ion size;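 further: chemical standards at 10 µM analysed by drift tube IMS-QTOF MS in about 3.95 torr nitrogen, mean of duplicate injections differing ≤1%, mass error below 10 ppm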
# studyConditions: ion type: [M+Na]; ion source: ESI; ion mode: Positive
Structures can show the parent of a compound that is named as a salt.

{"columns": ["compound", "unit", "collision cross section in nitrogen"],
 "data": [
  ["CN(C)CCC=C1c2ccccc2CCc2ccccc21 [Amitriptyline hydrochloride]", "Å²", 175.7],
  ["COc1ccc2[nH]cc(CCNC(C)=O)c2c1", "Å²", 156.9],
  ["CCCCOC(=O)c1ccccc1C(=O)OCCCC [Dibutyl 1,2-benzenedicarboxylate]", "Å²", 182.9],
  ["NC(=O)Cn1c(=O)cc(CCN2CCN(c3nccc4sccc34)CC2)c2ccc(F)cc21", "Å²", 207.9],
  ["CCOP(=O)(OCC)SCCSCC", "Å²", 162.4]
]}

---

# assayRemarks: collision cross section in nitrogen (drift tube, single-field); higher = larger gas-phase ion size
# studyConditions: ion type: [M+H]; ion source: ESI; ion mode: Positive
Counter-ions that a name gives are not always drawn.
Threshold check on collision cross section in nitrogen: at or above 200 Å² gives true, strictly below gives false.

{"columns": ["compound", "labelValue"],
 "data": [
  ["CC1(C)O[C@@H]2C[C@H]3[C@@H]4C[C@H](F)C5=CC(=O)CC[C@]5(C)[C@H]4[C@@H](O)C[C@]3(C)[C@]2(C(=O)CO)O1 [Flurandrenolide]", "false"],
  ["COCc1nnc(-c2ccc[n+]([O-])c2)n1-c1c(Cl)c(Cl)cc2[nH]c(=O)c(=O)[nH]c12", "false"],
  ["CC(CN1c2ccccc2Sc2ccccc21)N(C)C (configuration not stated) [Promethazine hydrochloride]", "false"],
  ["CC(=O)OCCN(CCOC(C)=O)c1ccc(N=Nc2ccc([N+](=O)[O-])cc2C#N)cc1", "true"],
  ["CCCCOC(=O)N(C)SN(C)C(=O)Oc1cccc2c1OC(C)(C)C2", "false"]
]}

---

# assayRemarks: collision cross section in nitrogen (drift tube, single-field); higher = larger gas-phase ion size
# studyConditions: ion type: [M+H]; ion source: APCI; ion mode: Positive
Structures can show the parent of a compound that is named as a salt.

{"columns": ["compound", "unit", "collision cross section in nitrogen"],
 "data": [
  ["CC(C)N(Cc1ccccc1)C(=O)C(C)(C)C", "Å²", 154.6],
  ["Cc1cccc(NC(=S)N(C)C)c1", "Å²", 143.1],
  ["Cc1cc(N)n(-c2ccccc2)n1", "Å²", 136.3],
  ["S=P(N1CC1)(N1CC1)N1CC1", "Å²", 132.5],
  ["CSc1ccc(Oc2ccc(S(N)(=O)=O)cc2CN(C)C)cc1C", "Å²", 196.5],
  ["COc1ccn(C)c(=O)c1C#N", "Å²", 132.2],
  ["c1ccc(CN(Cc2ccccc2)Cc2ccccc2)cc1", "Å²", 169.1],
  ["Cn1cc(-c2ccccc2)c(=O)c(-c2cccc(C(F)(F)F)c2)c1", "Å²", 179.6],
  ["Clc1ccc(COC(Cn2ccnc2)c2ccc(Cl)cc2Cl)cc1 (stereo not given) [Econazole nitrate]", "Å²", 185.8],
  ["Cc1ccnc2ccccc12 [Lepidine]", "Å²", 126.3],
  ["S=C(NC1CCCCC1)NC1CCCCC1", "Å²", 163],
  ["CN(C)C(=O)C1(N2CCCCC2)CCN(CC[C@@]2(c3ccc(Cl)c(Cl)c3)CN(C(=O)c3ccccc3)CCO2)CC1", "Å²", 244.9],
  ["CN(C)C(=O)Nc1ccc(Cl)cc1", "Å²", 142.7],
  ["CCOC(=O)NC(=S)Nc1ccccc1NC(=S)NC(=O)OCC [Thiophanate]", "Å²", 187],
  ["CN(C)c1ccc(/N=N/c2ccccc2C(=O)O)cc1", "Å²", 163.1],
  ["O=C(O)CCCC[C@@H]1SC[C@H]2NC(=O)N[C@@H]12", "Å²", 149.9],
  ["Cc1nnc(-c2ccccc2)c(=O)n1N", "Å²", 144.9],
  ["CC(C)c1ccc(C(=O)N=C(N)N)cc1S(C)(=O)=O [Cariporide mesylate]", "Å²", 175.1],
  ["O=C(Nc1ccccc1)c1cc2ccccc2cc1O [3-Hydroxy-2-naphthanilide]", "Å²", 160.9],
  ["CN(CCCC(O)c1cccnc1)N=O (stereo not given)", "Å²", 146.4],
  ["Nc1nc(N)c2nc(-c3ccccc3)c(N)nc2n1", "Å²", 158.4],
  ["NC(=O)c1ccc(N)nc1 [6-aminopyridine-3-carboxamide]", "Å²", 130.2],
  ["COc1cccc2c1C(=O)c1c(O)c3c(c(O)c1C2=O)C[C@@](O)(C(=O)CO)C[C@@H]3O[C@H]1C[C@H](N)[C@H](O)[C@H](C)O1 [Doxorubicin hydrochloride]", "Å²", 230.5],
  ["Cc1[nH]cnc1C[C@H]1CCc2c(C)c3ccccc3n2C1=O [Fabesetron hydrochloride]", "Å²", 175.1],
  ["CCn1nc(Cc2ccccc2)cc1C1CCN(C[C@H]2C[C@H](N(C)[C@@H](C(=O)O)C(C)C)C[C@@H]2c2cccc(F)c2)CC1", "Å²", 243.1],
  ["CC(O)CN(CCN(CC(C)O)CC(C)O)CC(C)O (stereo not given) [1,1′,1′′,1′′′-(Ethylenedinitrilo)tetrakis(2-propanol)]", "Å²", 166.8],
  ["Cc1cnc(NC(=O)C2=C(O)c3ccccc3S(=O)(=O)N2C)s1", "Å²", 179.2],
  ["CC(C)c1cccc(C(C)C)c1N=C=Nc1c(C(C)C)cccc1C(C)C [Bis(2,6-diisopropylphenyl)carbodiimide]", "Å²", 189.6],
  ["CCOP(=O)(NC(C)C)Oc1ccc(S(C)(=O)=O)c(C)c1 (stereo not given)", "Å²", 182.4],
  ["O=C(Nc1ccccc1)c1ccccc1I", "Å²", 146.6],
  ["O=C1c2ccccc2C(=O)C1c1nc2ccccc2c(Br)c1O", "Å²", 167.5],
  ["Cc1oc(-c2ccccc2)nc1CCOc1cccc2c1ccn2CCC(=O)O", "Å²", 190.8],
  ["CNC(=O)N(C)c1nc2ccccc2s1", "Å²", 144.2],
  ["CCCCN(CCO)CCO", "Å²", 136.3],
  ["CC[C@H]1CC[C@H](NCc2cc3c(cc2OC)[C@H]2C[C@H]2C(=O)N3C)[C@H](c2ccccc2)N1", "Å²", 208.4]
]}

---

# assayRemarks: collision cross section in nitrogen (drift tube, single-field); higher = larger gas-phase ion size
# studyConditions: ion type: [M+H]; ion source: APCI; ion mode: Positive
Counter-ions that a name gives are not always drawn.

{"columns": ["compound", "unit", "collision cross section in nitrogen"],
 "data": [
  ["CC(C)NCC(O)COc1ccc(CC(N)=O)cc1 (stereo not given)", "Å²", 157.9],
  ["CN(C)P(=O)(N(C)C)N(C)C [Hexamethylphosphoramide]", "Å²", 134.4],
  ["CC(C)(c1ccccc1)c1ccc(Nc2ccc(C(C)(C)c3ccccc3)cc2)cc1", "Å²", 220.2],
  ["Cc1nccn1-c1ccc(Sc2cccc(C3(C(N)=O)CCOCC3)c2)cc1", "Å²", 196.7],
  ["COc1cc(C=O)cc2c1[C@H](COC(N)=O)[C@]1(OC(C)=O)ON2C[C@H]2[C@@H]1N2C(C)=O", "Å²", 191.3],
  ["Cc1ncc([C@@H](CCCCCCc2ccc3c(n2)NCCC3)CC(=O)O)cn1", "Å²", 192.3],
  ["CN(C)C(=O)Nc1ccccc1", "Å²", 134],
  ["Cc1occc(=O)c1O", "Å²", 119.5],
  ["Cc1occc1C(=O)Nc1ccc(C(=O)N2CCC(F)(F)/C(=C\\C(=O)N3CCC(N4CCCCC4)CC3)c3ccccc32)cc1", "Å²", 240.1],
  ["CNC(=O)C(c1ccccc1)c1ccccc1 [N-methyl-alpha-phenylbenzeneacetamide]", "Å²", 153.4],
  ["Nc1ccc(Oc2ccc(N)c(N)c2)cc1", "Å²", 159.9],
  ["C=CCOC(Cn1ccnc1)c1ccc(Cl)cc1Cl (stereo not given)", "Å²", 167.9],
  ["O=C1C(N(CO)C(=O)NCO)N(CO)C(=O)N1CO (stereo not given)", "Å²", 162.8],
  ["COc1cc(C(=O)NC2CCN(C)CC2)ccc1Nc1ncc2c(n1)N(C1CCCC1)CC(F)(F)C(=O)N2C", "Å²", 250.9],
  ["Clc1cccc(Cl)c1NC1=NCCN1 [Clonidine hydrochloride]", "Å²", 147.1],
  ["CC(C)Nc1nc(N)nc(Cl)n1", "Å²", 139.3],
  ["COCCOCCOCCOCCOCCO", "Å²", 151.8],
  ["COC(=O)N(OC)c1ccccc1COc1ccn(-c2ccc(Cl)cc2)n1", "Å²", 184.5],
  ["Cc1ncc(CO)c(CO)c1O", "Å²", 133.7],
  ["c1cnc2c(c1)ccc1cccnc12", "Å²", 131.3]
]}

Data provenance: the supplement of paper PMC12317010
